molecular target: RET kinase (Homo sapiens); construct: GST tagged recombinant human RET, amino acids 658-1114; GST; purchased Invitrogen; host or cells: insect cells; assay: RET Kinase Assay; type: biochemical; details: ratio RET IC50 / MET IC50
Sequence (P07949 658-1114): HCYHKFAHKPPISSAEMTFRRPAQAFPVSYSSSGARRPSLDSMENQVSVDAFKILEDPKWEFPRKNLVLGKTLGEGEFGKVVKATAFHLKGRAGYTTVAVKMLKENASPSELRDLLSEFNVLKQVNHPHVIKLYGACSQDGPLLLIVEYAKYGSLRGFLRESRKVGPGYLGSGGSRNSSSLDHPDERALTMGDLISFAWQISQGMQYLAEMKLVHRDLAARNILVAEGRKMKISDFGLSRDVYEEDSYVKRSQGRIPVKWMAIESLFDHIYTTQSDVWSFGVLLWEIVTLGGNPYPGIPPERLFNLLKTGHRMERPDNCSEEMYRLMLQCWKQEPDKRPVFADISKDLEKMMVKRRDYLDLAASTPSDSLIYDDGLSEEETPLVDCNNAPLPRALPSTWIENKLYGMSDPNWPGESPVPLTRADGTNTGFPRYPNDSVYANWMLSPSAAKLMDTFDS

[
  {
    "compound": "CN1CCN(C2CCN(C(=O)Nc3cc(Oc4cc(F)c(NC(=O)C5(C(=O)Nc6ccc(F)cc6)CC5)cc4F)ccn3)CC2)CC1 [Compound G]",
    "target-desc": "RET kinase (Homo sapiens)",
    "readout-relation": "=",
    "Fold Selectivity RET/MET": 0.81
  },
  {
    "compound": "CC(=O)Nc1cc(Oc2cc(F)c(NC(=O)C3(C(=O)Nc4ccc(F)cc4)CC3)cc2F)ccn1 [Compound D]",
    "target-desc": "RET kinase (Homo sapiens)",
    "readout-relation": ">",
    "Fold Selectivity RET/MET": 825
  },
  {
    "compound": "CC(=O)Nc1cc(Oc2ccc(NC(=O)C3(C(=O)Nc4ccc(F)cc4)CC3)c(F)c2)ccn1 [Compound E]",
    "target-desc": "RET kinase (Homo sapiens)",
    "readout-relation": "=",
    "Fold Selectivity RET/MET": 1.65
  },
  {
    "compound": "O=C(Nc1cc(Oc2cc(F)c(NC(=O)C3(C(=O)Nc4ccc(F)cc4)CC3)cc2F)ccn1)N1CC(CO)C1 [Compound H]",
    "target-desc": "RET kinase (Homo sapiens)",
    "readout-relation": "=",
    "Fold Selectivity RET/MET": 7
  }
]

====

Overview of reported Fold Selectivity VEGR-1/MET across a group of compounds:
target: VEGFR-1 (FLT1 kinase) (Homo sapiens, UniProt P17948); construct: GST tagged recombinant human FLT1, amino acids 781-1338; GST; host or cells: insect cells; assay: FLT1 Kinase Assay (VEGFR-1); assay type: biochemical; conditions: ratio VEGFR-1 IC50 / MET IC50
Sequence (P17948 781-1338): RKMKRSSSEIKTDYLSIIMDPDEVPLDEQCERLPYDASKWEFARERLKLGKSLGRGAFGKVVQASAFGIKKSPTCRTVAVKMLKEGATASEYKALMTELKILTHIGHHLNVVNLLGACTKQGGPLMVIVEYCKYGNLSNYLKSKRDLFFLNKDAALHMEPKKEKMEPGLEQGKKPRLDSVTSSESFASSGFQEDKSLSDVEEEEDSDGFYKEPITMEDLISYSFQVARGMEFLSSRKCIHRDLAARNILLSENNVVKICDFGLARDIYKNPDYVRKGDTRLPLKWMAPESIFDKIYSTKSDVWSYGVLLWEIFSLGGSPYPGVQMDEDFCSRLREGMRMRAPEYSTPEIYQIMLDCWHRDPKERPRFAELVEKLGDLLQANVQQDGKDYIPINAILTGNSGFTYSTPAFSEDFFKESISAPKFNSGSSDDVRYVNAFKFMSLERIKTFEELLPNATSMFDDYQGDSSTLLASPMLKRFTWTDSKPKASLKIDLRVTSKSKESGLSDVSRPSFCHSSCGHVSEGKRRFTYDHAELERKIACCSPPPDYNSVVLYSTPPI

[
  {
    "smiles-record": "CC(=O)Nc1cc(Oc2ccc(NC(=O)C3(C(=O)Nc4ccc(F)cc4)CC3)c(F)c2)ccn1",
    "target-desc": "VEGFR-1 (FLT1 kinase) (Homo sapiens, UniProt P17948)",
    "Fold Selectivity VEGR-1/MET": 6.15
  },
  {
    "smiles-record": "CC(=O)Nc1cc(Oc2cc(F)c(NC(=O)C3(C(=O)Nc4ccc(F)cc4)CC3)cc2F)ccn1",
    "target-desc": "VEGFR-1 (FLT1 kinase) (Homo sapiens, UniProt P17948)",
    "Fold Selectivity VEGR-1/MET": 19.75
  },
  {
    "smiles-record": "CN1CCN(C2CCN(C(=O)Nc3cc(Oc4cc(F)c(NC(=O)C5(C(=O)Nc6ccc(F)cc6)CC5)cc4F)ccn3)CC2)CC1",
    "target-desc": "VEGFR-1 (FLT1 kinase) (Homo sapiens, UniProt P17948)",
    "Fold Selectivity VEGR-1/MET": 0.45
  },
  {
    "smiles-record": "O=C(Nc1cc(Oc2cc(F)c(NC(=O)C3(C(=O)Nc4ccc(F)cc4)CC3)cc2F)ccn1)N1CC(CO)C1",
    "target-desc": "VEGFR-1 (FLT1 kinase) (Homo sapiens, UniProt P17948)",
    "Fold Selectivity VEGR-1/MET": 3.5
  }
]
